Tested on: CCRF-HSB2;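 further: ALL cell lines in 384-well plates, five doses spanning 10,000-fold, each plate scaled between vehicle and 100 µmol/L benzalkonium chloride controls, sDSS an adapted area-under-curve metric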
ASSAY EXPLANATION: selective drug sensitivity score (sDSS, relative to normal bone marrow) (sDSS (score)); higher = more potent and effective on the cell line relative to normal bone marrow cells
PARTICULARS: 72 h
So basically: selective drug sensitivity score at 2 or higher? That is condition met. Lower than 2? That is condition not met.

1. CCCCCCCCCCCCCCCCCCOP(=O)([O-])OC1CC[N+](C)(C)CC1 [Perifosine] (top concentration 2500 nM): condition not met
2. CCN(CC)CCNC(=O)c1c(C)[nH]c(/C=C2\C(=O)Nc3ccc(-c4csc(-c5ccccc5)n4)cc32)c1C [Amcasertib] (top concentration 10000 nM): condition met
3. C[C@@]1(C(=O)Nc2ccc(F)nc2)CCCN1c1nc(Nc2cc(C3CC3)n[nH]2)c2cccn2n1 (top concentration 10000 nM): condition met
4. CCN1CCN(c2ccc(Nc3cc(N(C)C(=O)Nc4c(Cl)c(OC)cc(OC)c4Cl)ncn3)cc2)CC1 [Infigratinib] (top concentration 1000 nM): condition not met
5. CC(O)(CS(=O)(=O)c1ccc(F)cc1)C(=O)Nc1ccc(C#N)c(C(F)(F)F)c1 (centres undefined) [Bicalutamide] (top concentration 10000 nM): condition not met
6. COc1cccc2c1C(=O)c1c(O)c3c(c(O)c1C2=O)C[C@@](O)(/C(CO)=N/NC(=O)CCCCCN1C(=O)C=CC1=O)C[C@@H]3O[C@H]1C[C@H](N)[C@H](O)[C@H](C)O1 [Aldoxorubicin] (top concentration 1000 nM): condition met
7. Cc1c2oc3c(C)ccc(C(=O)N[C@@H]4C(=O)N[C@H](C(C)C)C(=O)N5CCC[C@H]5C(=O)N(C)CC(=O)N(C)[C@@H](C(C)C)C(=O)O[C@@H]4C)c3nc-2c(C(=O)N[C@@H]2C(=O)N[C@H](C(C)C)C(=O)N3CCC[C@H]3C(=O)N(C)CC(=O)N(C)[C@@H](C(C)C)C(=O)O[C@@H]2C)c(N)c1=O [Dactinomycin] (top concentration 1000 nM): condition met
8. C[C@H]1CN(C2COC2)CCN1c1ccc(Nc2cc(-c3ccnc(N4CCn5c(cc6c5CC(C)(C)C6)C4=O)c3CO)cn(C)c2=O)nc1 [GDC-0853] (top concentration 1000 nM): condition not met
9. CC(=O)c1cc2c(o1)C(=O)c1ccccc1C2=O [Napabucasin] (top concentration 20000 nM): condition not met
10. O=C(CCCCCCNC(=O)c1cnc(N(c2ccccc2)c2ccccc2)nc1)NO [Rocilinostat] (top concentration 10000 nM): condition met
11. Nc1cc(C(F)(F)F)c(-c2cc(N3CCOCC3)nc(N3CCOCC3)n2)cn1 [Buparlisib] (top concentration 10000 nM): condition met
12. CC1(C)CCC(CN2CCN(c3ccc(C(=O)NS(=O)(=O)c4ccc(NCC5CCOCC5)c([N+](=O)[O-])c4)c(Oc4cnc5[nH]ccc5c4)c3)CC2)=C(c2ccc(Cl)cc2)C1 [Venetoclax] (top concentration 1000 nM): condition not met
13. CC(=O)O[C@H]1C(=O)[C@@]2(C)[C@H]([C@H](OC(=O)c3ccccc3)[C@]3(O)C[C@H](OC(=O)[C@H](O)[C@@H](NC(=O)c4ccccc4)c4ccccc4)C(C)=C1C3(C)C)[C@]1(OC(C)=O)CO[C@@H]1C[C@@H]2O [Paclitaxel] (top concentration 1000 nM): condition met
14. CO[C@@H]1[C@H](N(C)C(=O)c2ccccc2)C[C@H]2O[C@]1(C)n1c3ccccc3c3c4c(c5c6ccccc6n2c5c31)C(=O)NC4 [Midostaurin] (top concentration 10000 nM): condition met
15. Nc1nc(Nc2ccc3c(c2)CC[C@@H](N2CCCC2)CC3)nn1-c1cc2c(nn1)-c1ccccc1CCC2 [BGB324] (top concentration 10000 nM): condition met
16. CO[C@H](C(=O)[C@@H](O)[C@@H](C)O)[C@@H]1Cc2cc3cc(O[C@H]4C[C@@H](O[C@H]5C[C@@H](O)[C@H](O)[C@@H](C)O5)[C@@H](O)[C@@H](C)O4)c(C)c(O)c3c(O)c2C(=O)[C@H]1O[C@H]1C[C@@H](O[C@H]2C[C@@H](O[C@H]3C[C@](C)(O)[C@H](O)[C@@H](C)O3)[C@H](O)[C@@H](C)O2)[C@H](O)[C@@H](C)O1 [Plicamycin] (top concentration 10000 nM): condition not met
17. CN1CCN(C(=O)c2ccc3cc(CCNc4ncnc5ccc(C#N)cc45)ccc3c2)CC1 [Senexin_B] (top concentration 1000 nM): condition met
18. CN(C)C1CCN(C(=O)c2ccc(NC(=O)Nc3ccc(-c4nc(N5CCOCC5)nc(N5CCOCC5)n4)cc3)cc2)CC1 [Gedatolisib] (top concentration 1000 nM): condition met
19. CC(C)[C@H](C(=O)Nc1ccc(C(=O)NO)cc1)c1ccccc1 [AR-42] (top concentration 10000 nM): condition met
